Overview of reported TGI across a group of compounds:
Test system: Vero
test-description: Growth inhibition of African green monkey Vero cells after 48 hrs by sulforhodamine B assay
Type: cell-based
condition-label: chlorocebus sabaeus, vero, 48 h

| molecule | TGI |
| --- | --- |
| CC1=CC[C@H](C(C)(C)NC(=S)N/N=C/c2cccs2)CC1 | 13.4 µM |
| CC1=CC[C@H](C(C)(C)NC(=S)N/N=C/c2cccc([N+](=O)[O-])c2)CC1 | > 100 µM |
| CC1=CC[C@H](C(C)(C)NC(=S)N/N=C/c2ccc(N(C)C)cc2)CC1 | > 100 µM |
| CC1=CC[C@H](C(C)(C)NC(=S)N/N=C(\C)c2ccc([N+](=O)[O-])cc2)CC1 | > 100 µM |

Now consider a different compound.
Exercise: Look at this compound and give its reported TGI. CC1=CC[C@H](C(C)(C)NC(=S)N/N=C(\C)c2ccccc2)CC1
Key: > 100 µM

Every entry's value here was drawn from ChEMBL document CHEMBL3232876.
